Please go through the items and note down their log10 of ED50.
test system: Rattus norvegicus; experiment: Analgesic activity in sc dosed rat assessed as phenylquinone-induced writhing measured for 10 mins; type: functional
In our notation, the value equals log10 of ED50 in mg/kg.

stdin: Quickly give me recorded log10 of ED50 for `Oc1ccc2c(c1)[C@@]13CCCC[C@H]1[C@@H](C2)N(CC1CC1)CC3`
stdout: -1.55

stdin: Quickly give me recorded log10 of ED50 for Oc1ccc2c(c1)[C@@]13CCCO[C@H]1[C@@H](C2)N(CC1CC1)CC3 (stereo in doubt; (-)-6c)
stdout: -1.05

stdin: Quickly give me recorded log10 of ED50 for `Oc1ccc2c(c1)[C@@]13CCCC[C@@]1(O)[C@@H](C2)N(CC1CCC1)CC3`
stdout: -1.40

stdin: Quickly give me recorded log10 of ED50 for C[C@@]12OCCC[C@@]13CCN(CC1CC1)[C@@H]2Cc1ccc(O)cc13 (stereo in doubt; (-)-6d)
stdout: -0.70

stdin: Quickly give me recorded log10 of ED50 for `Oc1ccc2c(c1)[C@@]13CCCC[C@@]1(O)[C@@H](C2)N(CC1CC1)CC3`
stdout: 0.90

###

tested on: Mus musculus; experiment: Narcotic antagonist activity in sc dosed mouse assessed as reversal of oxymorphone-induced straub tail response administered 10 mins before oxymorphone challenge; type: functional; conditions: Mus musculus, sc; read-out: ED50
Quantity Kind: ED50 (mg/kg)
Only the number, expressed in mg/kg, is required.

stdin: Quickly give me recorded ED50 for Oc1ccc2c(c1)[C@@]13CCCC[C@@]1(O)[C@@H](C2)N(CC1CC1)CC3 [OXILORPHAN]
stdout: 0.19

stdin: Quickly give me recorded ED50 for `C[C@]12OCCC[C@@]13CCN(CC1CC1)[C@@H]2Cc1ccc(O)cc13`
stdout: 6

stdin: Quickly give me recorded ED50 for CC1CC23CCN(CC4CC4)C(Cc4ccc(O)cc42)C3(C)O1 (configuration not stated)
stdout: 5

stdin: Quickly give me recorded ED50 for C=CCC12CCN(CC3CC3)C(Cc3ccc(O)cc31)[C@]2(C)O (some centres not stated)
stdout: 0.8

stdin: Quickly give me recorded ED50 for Oc1ccc2c(c1)[C@@]13CCCC[C@@]1(O)[C@@H](C2)N(CC1CCC1)CC3 [BUTORPHANOL]
stdout: 0.98

stdin: Quickly give me recorded ED50 for `C[C@]12OCCC[C@@]13CCN(CC1CCC1)[C@@H]2Cc1ccc(O)cc13`
stdout: 5

stdin: Quickly give me recorded ED50 for `Oc1ccc2c(c1)[C@@]13CCCO[C@H]1[C@@H](C2)N(CC1CCC1)CC3`
stdout: 10

stdin: Quickly give me recorded ED50 for `C=CCN1CC[C@]23CCCO[C@@]2(C)[C@H]1Cc1ccc(O)cc13`
stdout: 1

###

test system: Mus musculus; test: Narcotic antagonist activity in sc dosed mouse assessed as reversal of oxymorphone-induced straub tail response administered 10 mins before oxymorphone challenge; format: functional; settings: Mus musculus, sc; read-out: ED50
Quantity Kind: ED50 (mg/kg)
Only the number, expressed in mg/kg, is required.

stdin: Enter ED50 (test system Mus musculus) for `Oc1ccc2c(c1)[C@@]13CCCC[C@H]1[C@@H](C2)N(CC1CC1)CC3`
stdout: 0.32

stdin: Enter ED50 (test system Mus musculus) for C=CCC12CCN(CC3CCC3)C(Cc3ccc(O)cc31)[C@@H]2O (stereo not given in full)
stdout: 4.5

stdin: Enter ED50 (test system Mus musculus) for C=CCC12CCN(CC3CC3)C(Cc3ccc(O)cc31)[C@@H]2O (stereo not given in full)
stdout: 1.9

stdin: Enter ED50 (test system Mus musculus) for `C[C@@]12OCCC[C@@]13CCN(CC1CCC1)[C@@H]2Cc1ccc(O)cc13`
stdout: 23

stdin: Enter ED50 (test system Mus musculus) for `Oc1ccc2c(c1)[C@@]13CCCO[C@@H]1[C@@H](C2)N(CC1CC1)CC3`
stdout: 20

stdin: Enter ED50 (test system Mus musculus) for C=CCC12CCN(CC3CCC3)C(Cc3ccc(O)cc31)[C@]2(C)O (stereo not given in full)
stdout: 10
